Cited source: the supplement of paper PMC12669032

System: Bacteroides stercoris
Experimental protocol: growth AUC relative to DMSO control (median of replicates) (fraction); higher = more growth (less inhibition), active = hit call of the paper
Test conditions: 20 µM; 24 h
Assay readout: growth AUC

Reference set, count: 5
{"Molecule": "CC1(C)C(C=C(Cl)Cl)[C@@H]1C(=O)O[C@@H](C#N)c1ccc(F)c(Oc2ccccc2)c1 (stereo partly drawn)", "Observed result": "0.992 (inactive)"}
{"Molecule": "CC1(C)CC/C(=C\\c2ccc(Cl)cc2)C1(O)Cn1cncn1 (stereo not drawn)", "Observed result": "0.792 (inactive)"}
{"Molecule": "CCS(=O)(=O)c1nc2ccccn2c1S(=O)(=O)NC(=O)Nc1nc(OC)cc(OC)n1", "Observed result": "1 (inactive)"}
{"Molecule": "Nc1nc(N)nc(NC2CC2)n1", "Observed result": "1.04 (inactive)"}
{"Molecule": "COc1nc(C)nc(NC(=O)NS(=O)(=O)c2ccccc2CCC(F)(F)F)n1", "Observed result": "0.978 (inactive)"}

// query Entry `CCCN(CCC)c1c([N+](=O)[O-])cc(C(C)C)cc1[N+](=O)[O-]` needs its growth AUC filled in; supply it.
// result 0.991 (inactive)

// query Entry COC(C)(C)CCCC(C)C/C=C/C(C)=C/C(=O)OC(C)C (stereo not drawn) needs its growth AUC filled in; supply it.
// result 1.03 (inactive)
